Assay: NCI Yeast Anticancer Drug Screen. Data for the mlh1 rad18 strain (AID 175)
Details: S. cerevisiae mlh1 rad18 strain growth inhibition, stronger effect = higher value; at 50.0 µM unless noted
Experimental: Growth inhibition of yeast strains with defined genetic alterations is measured as a screen for potential anti-cancer activity. Selected strains with alterations in DNA damage repair or cell cycle control were exposed to compounds and growth inhibition was measured relative to vehicle treated controls. The strain used in this assay is mlh1 rad18
The panel holds about 79,000 compounds, 15% with a hit somewhere; the sample as a whole holds those more often.
value kind: growth inhibition (%)

line notation | value kind | unit | test value
CCOC(=O)C1(Cc2ccccc2)Cc2cc3c(cc2C1)CCC3 | growth inhibition | % | -2.5
O=C(O)COc1ccc(NC(=O)COc2ccc(Cl)c(Cl)c2)cc1 | growth inhibition | % | 15.1
CN(C)CC=C(c1ccccc1)c1ccccc1 | growth inhibition | % | 6.6
O=S(=O)(c1ccccn1)c1nc2ccccc2s1 | growth inhibition | % | 0.45
O=[N+]([O-])c1cccc(Br)c1 | growth inhibition | % | 5.75
Cn1c2ccccc2c2c3c(ccc21)C(=O)N(c1ccccc1)C3=O | growth inhibition | % | 2.95
CC1(C)CCC(CC(=O)O)(CC(=O)O)CC1 | growth inhibition | % | 11.4
COc1c(OC(C)=O)ccc(/C=C2\N=C(C)OC2=O)c1[N+](=O)[O-] | growth inhibition | % | 9.2
